So I've got a bunch of compounds here, and I need their Emax values.
- target-entity: human Farnesoid X receptor ligand-binding domain/Gal4 DNA binding domain chimera (Homo sapiens (Human), UniProt Q96RI1)
- Sequence (Q96RI1 262-486, change not shown): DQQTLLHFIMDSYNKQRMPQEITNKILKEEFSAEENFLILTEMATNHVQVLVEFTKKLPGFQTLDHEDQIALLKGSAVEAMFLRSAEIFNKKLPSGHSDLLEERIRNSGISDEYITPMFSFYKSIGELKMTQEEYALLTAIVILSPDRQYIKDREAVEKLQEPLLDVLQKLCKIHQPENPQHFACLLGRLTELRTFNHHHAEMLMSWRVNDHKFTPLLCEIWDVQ
- Sequence (P04386 1-147 partner): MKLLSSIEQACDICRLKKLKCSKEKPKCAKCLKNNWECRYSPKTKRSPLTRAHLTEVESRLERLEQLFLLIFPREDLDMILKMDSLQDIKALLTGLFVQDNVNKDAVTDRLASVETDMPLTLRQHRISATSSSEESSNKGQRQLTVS
- experiment: Cell-based assay of FXR activation (FXR-UAS-bla HEK 293T beta-lactamase reporter)
- experimental-parameters: HEK-293T; extent of activation relative to GW4064; cellular FXR beta-lactamase reporter assay; read-out: % Efficacy
Give the value, in units of %, as a plain number.

[Q] Please look up its Emax: N#Cc1cc(F)c(N2C[C@@H]3C[C@H]2C[C@H]3OCc2c(-c3c(Cl)cccc3Cl)noc2C2CC2)c(F)c1 [Compound I-54a]
[A] 112

[Q] Please look up its Emax: `O=C(O[C@@H]1C[C@@H]2C[C@H]1CN2c1ccc(-c2nn[nH]n2)cc1F)c1c(-c2c(Cl)cccc2Cl)noc1C1CC1`
[A] 104

[Q] Please look up its Emax: `Cc1cccc(Cl)c1-c1noc(C2CC2)c1CO[C@@H]1C[C@@H]2C[C@H]1CN2c1nc2c(C)cc(C(=O)O)cc2s1`
[A] 106

[Q] Please look up its Emax: `N#Cc1cc(N2C[C@@H]3C[C@H]2C[C@H]3OCc2c(-c3c(Cl)cccc3Cl)noc2C2(F)CC2)ccc1C(=O)O`
[A] 99

[Q] Please look up its Emax: `O=C(O)c1cc(OC2CC2)c2nc(N3C[C@@H]4C[C@H]3C[C@H]4OCc3c(C4CCC5(CC4)CC5)noc3C3CC3)sc2c1`
[A] 98

[Q] Please look up its Emax: `O=C(O)c1cc(OC(F)(F)F)c2nc(N3C[C@@H]4C[C@H]3C[C@H]4OC(=O)c3c(-c4ccccc4C(F)(F)F)noc3C3CC3)sc2c1`
[A] 107

====

- target-entity: human Farnesoid X receptor ligand-binding domain/Gal4 DNA binding domain chimera (Homo sapiens (Human))
- experiment: Cell-based assay of FXR activation (FXR-UAS-bla HEK 293T beta-lactamase reporter)
- experimental-parameters: HEK-293T; extent of activation relative to GW4064; cellular FXR beta-lactamase reporter assay; read-out: % Efficacy
So I've got a bunch of molecules here, and I need their Emax values.
Give the value, in units of %, as a plain number.

[Q] Please look up its Emax: `COCC(=O)NCCCCCCCCCCS(=O)(=O)NC(=O)c1ccc(N2C[C@@H]3C[C@H]2C[C@H]3OCc2c(-c3c(Cl)cccc3Cl)noc2C2CC2)c(F)c1`
[A] 103

[Q] Please look up its Emax: `CC(C)(Cc1ccc(N2C[C@@H]3C[C@H]2C[C@H]3OCc2c(-c3c(Cl)cccc3Cl)noc2C2CC2)cc1F)C(=O)O`
[A] 105

[Q] Please look up its Emax: O=C(NS(=O)(=O)C1CC1)c1ccc([N+]2([O-])C[C@@H]3C[C@H]2C[C@H]3OCc2c(-c3c(Cl)cccc3Cl)noc2C2CC2)cc1 (stereo partly drawn)
[A] 102

[Q] Please look up its Emax: `O=C(O[C@@H]1C[C@@H]2C[C@H]1CN2c1ccc(-c2nn[nH]n2)cc1)c1c(-c2c(Cl)cccc2Cl)noc1C1CC1`
[A] 109

[Q] Please look up its Emax: `O=C(O)c1ccc(N2C[C@@H]3C[C@H]2C[C@H]3OCc2c(-c3ccccc3C(F)(F)F)noc2C2CC2)c(F)c1`
[A] 107

[Q] Please look up its Emax: `O=C(O)c1ccc(N2C(=O)[C@@H]3C[C@H]2C[C@H]3OCc2c(-c3c(Cl)cccc3Cl)noc2C2CC2)cc1`
[A] 102

====

- target-entity: human Farnesoid X receptor ligand-binding domain/Gal4 DNA binding domain chimera (Homo sapiens (Human), UniProt Q96RI1)
- experiment: Cell-based assay of FXR activation (FXR-UAS-bla HEK 293T beta-lactamase reporter)
- experimental-parameters: cellular FXR beta-lactamase reporter assay, FXR-UAS-bla HEK 293T cells, 16 h; pEC50 = -log EC50
pEC50: −log10 of the molar value.
Think of 9 as a floor: if pEC50 stands on it or above, it is label 1; beneath it, label 0.

[Q] Decide: pEC50 of O=C(NS(=O)(=O)C1COC1)c1ccc(N2C[C@@H]3C[C@H]2C[C@H]3OCc2c(-c3c(Cl)cccc3Cl)noc2C2CC2)cc1 [Compound I-184] >= 9?
[A] label 0

[Q] Decide: pEC50 of O=C(NS(=O)(=O)C1CCCC1)c1ccc(N2C(=O)[C@@H]3C[C@H]2C[C@H]3OCc2c(-c3c(Cl)cccc3Cl)noc2C2CC2)cc1 [Compound I-343] >= 9?
[A] label 1

[Q] Decide: pEC50 of CCCS(=O)(=O)NC(=O)c1cc(F)c2nc(N3C[C@@H]4C[C@H]3C[C@H]4OC(=O)c3c(-c4c(Cl)cccc4Cl)noc3C3CC3)sc2c1 [Compound I-32] >= 9?
[A] label 0

[Q] Decide: pEC50 of O=C(NS(=O)(=O)C1CC1)c1ccc(N2C[C@@H]3C[C@H]2C[C@H]3OCc2c(-c3c(Cl)cccc3Cl)noc2C2CC2)cc1F [Compound I-195] >= 9?
[A] label 1

====

- target-entity: human Farnesoid X receptor ligand-binding domain/Gal4 DNA binding domain chimera (Homo sapiens (Human), UniProt Q96RI1)
- experiment: Cell-based assay of FXR activation (FXR-UAS-bla HEK 293T beta-lactamase reporter)
- experimental-parameters: cellular FXR beta-lactamase reporter assay, FXR-UAS-bla HEK 293T cells, 16 h; pEC50 = -log EC50
So I've got a bunch of molecules here, and I need their EC50 values.
Give the value, in units of nM, as a plain number.

[Q] Please look up its EC50: O=C(O)c1cnc(N2C[C@@H]3C[C@H]2C[C@H]3OCc2c(-c3c(Cl)cccc3Cl)noc2C2(F)CC2)c(F)c1 [Compound I-130]
[A] 7.94

[Q] Please look up its EC50: O=C(NS(=O)(=O)C1CCC1)c1ccc(N2C[C@@H]3C[C@H]2C[C@H]3OCc2c(-c3c(Cl)cccc3Cl)noc2C2CC2)cc1 [Compound I-183]
[A] 0.1

[Q] Please look up its EC50: O=C(NS(=O)(=O)C1CC1)c1ccc(N2C[C@H]3C[C@@H]2C[C@@H]3OCc2c(-c3c(Cl)cccc3Cl)noc2C2CC2)c(F)c1 [Compound I-231]
[A] 15.8

[Q] Please look up its EC50: CN(CC(=O)O)S(=O)(=O)c1ccc(N2C[C@@H]3C[C@H]2C[C@H]3OCc2c(-c3c(Cl)cccc3Cl)noc2C2CC2)cc1 [Compound I-143]
[A] 1

[Q] Please look up its EC50: Cc1cc(C(=O)O)ccc1N1C(=O)[C@@H]2C[C@H]1C[C@H]2OCc1c(-c2c(Cl)cccc2Cl)noc1C1CC1 [Compound I-317]
[A] 100

[Q] Please look up its EC50: O=C(O)c1cnc(N2C[C@@H]3C[C@H]2C[C@H]3OCc2c(-c3c(Cl)cccc3Cl)noc2C2CC2)nc1 [Compound I-145]
[A] 63.1

[Q] Please look up its EC50: O=C(CCc1ccc(N2C[C@@H]3C[C@H]2C[C@H]3OCc2c(-c3c(F)cccc3Cl)noc2C2CC2)c(F)c1)NS(=O)(=O)C1CCOCC1 [Compound I-235]
[A] 3.98

[Q] Please look up its EC50: CS(=O)(=O)NC(=O)CCc1ccc(N2C[C@@H]3C[C@H]2C[C@H]3OCc2c(-c3c(F)cccc3Cl)noc2C2CC2)c(F)c1 [Compound I-239]
[A] 7.94

[Q] Please look up its EC50: CCOc1cc(C(=O)O)cc2sc(N3C[C@@H]4C[C@H]3C[C@H]4OC(=O)c3c(-c4c(Cl)cccc4Cl)noc3C3CC3)nc12 [Compound I-8]
[A] 2.51

[Q] Please look up its EC50: O=C(O)c1ccc(N2C[C@@H]3C[C@H]2C[C@H]3OCc2c(-c3c(Cl)cccc3Cl)noc2C2(F)CC2)cc1F [Compound I-122]
[A] 1.58

[Q] Please look up its EC50: Cc1cc(C(=O)O)cc2sc(N3C[C@@H]4C[C@H]3C[C@H]4OC(=O)c3c(-c4c(Cl)cccc4Cl)noc3C3CC3)nc12 [Compound I-3]
[A] 5.01

[Q] Please look up its EC50: O=C(O)c1cc(C2CCCC2)c2nc(N3C[C@H]4C[C@@H]3C[C@@H]4OCc3c(-c4c(Cl)cccc4Cl)noc3C3CC3)sc2c1 [Compound I-285]
[A] 2.51

[Q] Please look up its EC50: O=C(O)c1cc(C2CCC2)c2nc(N3C[C@H]4C[C@@H]3C[C@@H]4OCc3c(-c4c(Cl)cccc4Cl)noc3C3CC3)sc2c1 [Compound I-284]
[A] 3.16

[Q] Please look up its EC50: Cc1cc(C(=O)O)cc2sc(N3C[C@@H]4C[C@H]3C[C@H]4OCc3c(-c4c(Cl)cccc4Cl)noc3C3CC3)nc12 [Compound I-13]
[A] 0.158

[Q] Please look up its EC50: O=C(O)c1cc(C2CCOC2)c2nc(N3C(=O)[C@@H]4C[C@H]3C[C@H]4OCc3c(-c4c(Cl)cccc4Cl)noc3C3CC3)sc2c1 (stereo partly shown) [Compound I-299]
[A] 3.98

[Q] Please look up its EC50: Cc1cc(C(=O)O)ccc1N1C[C@@H]2C[C@H]1C[C@H]2OCc1c(-c2c(Cl)cccc2Cl)noc1C1CC1 [Compound I-107]
[A] 1

[Q] Please look up its EC50: O=C(O)c1cc(C2CCC2)c2nc(N3C(=O)[C@@H]4C[C@H]3C[C@H]4OCc3c(-c4c(Cl)cccc4Cl)noc3C3CC3)sc2c1 [Compound I-296]
[A] 10

[Q] Please look up its EC50: O=C(NS(=O)(=O)C1CC1)c1ccc(N2C[C@@H]3C[C@H]2C[C@H]3OC(=O)c2c(-c3c(Cl)cccc3Cl)noc2C2CC2)cc1 [Compound I-47]
[A] 15.8

[Q] Please look up its EC50: O=C(O)c1cc(C2CCCC2)c2nc(N3C[C@@H]4C[C@H]3C[C@H]4OCc3c(-c4c(Cl)cccc4Cl)noc3C3CC3)sc2c1 [Compound I-250]
[A] 0.501

[Q] Please look up its EC50: O=C(O)c1ccc2nc(N3C[C@@H]4C[C@H]3C[C@H]4OC(=O)c3c(-c4c(Cl)cccc4Cl)noc3C3CC3)sc2c1 [Compound I-2]
[A] 10

[Q] Please look up its EC50: O=C(O)c1cc(C2CC2)c2nc(N3C[C@@H]4C[C@H]3C[C@H]4OCc3c(-c4c(Cl)cccc4Cl)noc3C3CC3)sc2c1 [Compound I-14]
[A] 0.1

[Q] Please look up its EC50: Cc1cc(C(=O)O)cc2sc(N3C[C@@H]4C[C@H]3C[C@H]4OCc3c(-c4c(F)cccc4Cl)noc3C3CC3)nc12 [Compound I-262]
[A] 2

[Q] Please look up its EC50: COc1cc(N2C[C@@H]3C[C@H]2C[C@H]3OCc2c(-c3c(Cl)cccc3Cl)noc2C2CC2)ccc1C(=O)O [Compound I-112]
[A] 5.01

[Q] Please look up its EC50: Cc1cccc(Cl)c1-c1noc(C2CC2)c1CO[C@@H]1C[C@@H]2C[C@H]1CN2c1nc2c(C3CCOCC3)cc(C(=O)O)cc2s1 [Compound I-271]
[A] 0.398
